Assay: JHH-DIPG-1 glioma cell viability, MIPE5.0 library, CellTiter-Glo luminescence, qHTS (AID 1347067);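 note: cells exposed to compound for 48 hours before readout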
Settings: JHH-DIPG-1 glioma viability, CellTiter-Glo ATP luminescence
Records with an inconclusive call do not appear. The source made the active and inactive calls. No cut-off is given here; in the data, nearly all actives have AC50 up to about 26 µM.
# output must be one of active, inactive

{"columns": ["compound", "cat"],
 "data": [
  ["O=C(CCCCCCC(=O)N/N=C/c1ccc(N(c2ccccc2)c2ccccc2)cc1)NO", "active"]
]}

Which result was noted for this compound in the test: OC[C@H]1O[C@@H](n2cnc3c2NC=NC[C@H]3O)C[C@@H]1O
inactive

Which result was noted for this compound in the test: OC(c1ccc(-c2ccc(CN3CCN(Cc4ccncc4)CC3)cc2)c(F)c1)(C(F)(F)F)C(F)(F)F
inactive

Which result was noted for this compound in the test: C=CC[N+]1([C@H]2C[C@H]3[C@@H]4CC[C@H]5C[C@H](O)[C@@H](N6CCOCC6)C[C@]5(C)[C@H]4CC[C@]3(C)[C@H]2OC(C)=O)CCCC1
inactive

Which result was noted for this compound in the test: CS(=O)(=O)c1ccc(C(=O)Nc2ccc(Cl)c(-c3ccccn3)c2)c(Cl)c1
inactive

Which result was noted for this compound in the test: COc1ccc(CNC(=O)c2cc(-c3cncc(Cl)c3)cnc2-c2ccccn2)nc1OC
inactive

Which result was noted for this compound in the test: O=C1OC2(CCC(C(=O)Nc3ccn(-c4ccccc4F)n3)CC2)c2cnccc21 (stereo unspecified)
inactive

Which result was noted for this compound in the test: O=C1NC(=O)/C(=C/c2ccc(-c3ccc(F)cc3O)o2)S1
inactive

Which result was noted for this compound in the test: OCCNC1CCCc2c1[nH]c1ccc(-c3ccccc3)cc21 (stereo unspecified)
active

Which result was noted for this compound in the test: O=C(c1cc(Cc2n[nH]c(=O)c3ccccc23)ccc1F)N1CCN(C(=O)C2CC2)CC1
inactive

Which result was noted for this compound in the test: CCOC(=O)N[C@@H]1CC[C@@H]2[C@@H](C1)C[C@H]1C(=O)O[C@H](C)[C@H]1[C@H]2/C=C/c1ccc(-c2cccc(F)c2)cn1
inactive

Which result was noted for this compound in the test: CC(C)(C)C(=O)CN1C(=O)[C@H](NC(=O)Nc2cccc(C(=O)O)c2)CN(C2CCCCC2)c2ccccc21
inactive

Which result was noted for this compound in the test: c1ccc2c(Oc3nc(Nc4ccc(N5CCOCC5)cc4)c4ncn(C5CCCCC5)c4n3)cccc2c1
active

Which result was noted for this compound in the test: O=C(Cc1ccccc1)Nc1nnc(CCSCCc2nnc(NC(=O)Cc3ccccc3)s2)s1
active

Which result was noted for this compound in the test: CCS(=O)(=O)N1CCN(c2ccc(Nc3ncc(C(N)=O)c(NC4CC4)n3)cc2)CC1
active

Which result was noted for this compound in the test: Nc1ccc(C(=O)Nc2cccc(-c3nc(N4CCOCC4)c4oc5ncccc5c4n3)c2)cn1
active

###

Assay: JHH-DIPG-1 glioma cell viability, MIPE5.0 library, CellTiter-Glo luminescence, qHTS (AID 1347067);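 note: cells exposed to compound for 48 hours before readout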
Conditions: JHH-DIPG-1 glioma viability, CellTiter-Glo ATP luminescence
Inconclusive results are not listed. Calls of active or inactive are those of the source. Cut-off not given; nearly all actives show AC50 up to about 26 µM.
# output must be one of active, inactive

Which result was noted for this compound in the test: CCc1nc(C(N)=O)c(Nc2ccc(N3CCC(N4CCN(C)CC4)CC3)c(OC)c2)nc1NC1CCOCC1
active

Which result was noted for this compound in the test: CCc1cc(C(N)=O)ccc1-n1nc(C(C)C)c2c(-n3cnc(-c4cnn(C)c4)c3)ccnc21
active

Which result was noted for this compound in the test: Cc1c[nH]c2nc(Nc3ccc(N4CCN(C)CC4)c(F)c3)nc(-c3cccc(CC#N)c3)c12
active

Which result was noted for this compound in the test: CC(=O)Nc1ccc([C@H](C)C(=O)Nc2ncc(C(C)C)s2)cc1
active

Which result was noted for this compound in the test: CCC(=O)Nc1cccc(Oc2nc(Nc3ccc(N4CCN(C)CC4)cc3OC)ncc2Cl)c1
active

Which result was noted for this compound in the test: COCCOC(=O)N1CCN(S(=O)(=O)c2cc(F)c(Oc3ccc(Cl)cc3)c(F)c2)C(C(=O)NO)C1 (centres undefined)
active

Which result was noted for this compound in the test: C#Cc1cccc(Nc2ncnc3cc(OCCOC)c(OCCO)cc23)c1
active

Which result was noted for this compound in the test: Fc1ccc(-c2csc3ncnc(NCc4ccc5c(c4)OCO5)c23)cc1
active

Which result was noted for this compound in the test: O=C(Nc1cc(Cl)cc2c1[nH]c1cnccc12)c1cccnc1
inactive

Values were extracted from PubChem BioAssay.
